TESTED TARGET: human serotonin 5-HT2C receptor (Homo sapiens, UniProt P28335)
Construct: expressed in transfected cells; host or cells: CHO-K1
Sequence (P28335 33-458): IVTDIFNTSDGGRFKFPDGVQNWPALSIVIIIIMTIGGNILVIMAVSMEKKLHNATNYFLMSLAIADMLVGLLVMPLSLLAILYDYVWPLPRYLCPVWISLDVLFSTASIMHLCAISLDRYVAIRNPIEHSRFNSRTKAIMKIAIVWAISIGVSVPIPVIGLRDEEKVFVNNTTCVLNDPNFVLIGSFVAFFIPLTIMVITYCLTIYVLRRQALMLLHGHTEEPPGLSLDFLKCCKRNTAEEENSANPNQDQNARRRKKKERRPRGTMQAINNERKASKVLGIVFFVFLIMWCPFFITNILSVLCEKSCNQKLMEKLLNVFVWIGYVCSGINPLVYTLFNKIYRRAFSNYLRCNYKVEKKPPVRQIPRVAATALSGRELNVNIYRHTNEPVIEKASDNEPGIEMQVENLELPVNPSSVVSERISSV
ASSAY REMARKS: Radioligand binding assay, human 5-HT2C receptors ([3H]Mesulergine)
CONDITION: human; Example 100 table; read-out: IC50 (nM) 5-HT2C
MEASUREMENT KIND: IC50

COMPOUND	READOUT VALUE
CN1CCCC1CCNc1nc(C2(c3ccccc3F)CCCCC2)cs1 (single isomer, unassigned) [Compound 129]	< 1000 nM
Cc1c(-c2csc(N3CCN(C)CC3)n2)sc2ccc(Cl)cc12 [Compound 113]	< 1000 nM
Clc1ccc(C2(c3csc(NCCCN4CCOCC4)n3)CCCC2)cc1 [Compound 100]	< 1000 nM
CCN(CC)CCCNc1nc(C2(c3ccc(Cl)cc3)CCCCC2)cs1 [Compound 103]	< 1000 nM
COc1ccccc1N1CCN(c2nc(C3(c4ccccc4F)CCCCC3)cs2)CC1 [Compound 97]	> 1000 nM
CN1CCCC1CCNc1nc(C2(c3ccccc3F)CCCCC2)cs1 (single isomer, unassigned) [Compound 130]	< 10 nM

====

TESTED TARGET: human serotonin 5-HT2B receptor (Homo sapiens, UniProt P41595)
Construct: expressed in transfected cells; host or cells: CHO-K1
Sequence (P41595 whole entry): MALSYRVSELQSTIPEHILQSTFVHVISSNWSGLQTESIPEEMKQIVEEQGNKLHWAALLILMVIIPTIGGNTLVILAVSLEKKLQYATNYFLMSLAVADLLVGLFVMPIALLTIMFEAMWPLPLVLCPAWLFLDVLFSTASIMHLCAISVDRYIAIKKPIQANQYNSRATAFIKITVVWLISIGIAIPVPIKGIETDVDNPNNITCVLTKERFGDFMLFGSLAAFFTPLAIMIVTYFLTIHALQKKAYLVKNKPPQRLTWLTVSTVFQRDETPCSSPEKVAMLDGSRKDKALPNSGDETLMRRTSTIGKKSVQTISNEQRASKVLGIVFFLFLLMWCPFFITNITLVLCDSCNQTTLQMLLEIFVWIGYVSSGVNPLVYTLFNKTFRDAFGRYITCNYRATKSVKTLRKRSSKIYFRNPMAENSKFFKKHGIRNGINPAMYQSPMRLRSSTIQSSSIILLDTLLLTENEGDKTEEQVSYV
ASSAY REMARKS: Radioligand binding assay, human 5-HT2B receptors ([3H]LSD)
CONDITION: human 5-HT2b; Example 16 table; read-out: IC50 (nM) 5-HT2b
MEASUREMENT KIND: IC50

COMPOUND	MEASUREMENT KIND	READOUT VALUE
Clc1ccc(C2(c3csc(NCCCN4CCOCC4)n3)CCC2)cc1 [Compound 21]	IC50	< 1000 nM
CN1CCN(c2nc(C3(c4ccc(Cl)cc4)CCC3)no2)CC1 [Compound 28]	IC50	> 1000 nM
CN1CCN(c2nc(C3(c4ccc(F)cc4)CCCCC3)cs2)CC1 [Compound 81]	IC50	< 100 nM
CN1CCN(c2nc(C3(c4cccc(Cl)c4)CCOCC3)cs2)CC1 [Compound 63]	IC50	< 1000 nM
CN1CCN(c2nc(C3(c4ccc(OC(F)(F)F)cc4)CCOCC3)cs2)CC1 [Compound 55]	IC50	> 1000 nM
CN1CCN(c2nc(C3(c4ccc(Cl)cc4)CCCC3)cs2)CC1 [Compound 85]	IC50	< 1000 nM
CN1CCN(c2nc(C3(c4ccc(C(F)(F)F)cc4)CCOCC3)cs2)CC1 [Compound 43]	IC50	> 1000 nM
CCN1CCCC1CNc1nc(C2(c3ccc(Cl)cc3)CCC2)cs1 (stereo not drawn) [Compound 25]	IC50	< 1000 nM
CN1CCCC1CCNc1nc(C2(c3ccc(Cl)cc3)CCC2)cs1 (stereo not drawn) [Compound 24]	IC50	< 100 nM
CN1CCN(c2nc(C3(c4csc5ccc(Cl)cc45)CCOCC3)cs2)CC1 [Compound 36]	IC50	< 1000 nM
Clc1cccc(C2(c3csc(C4CCCNC4)n3)CCOCC2)c1 (stereo not drawn) [Compound 38]	IC50	> 1000 nM
Clc1ccc(C2(c3nc(N4CCNCC4)sc3Cl)CCOCC2)cc1 [Compound 39]	IC50	< 1000 nM
CN1CCN(c2nc(Cc3csc4ccc(Cl)cc34)cs2)CC1 [Compound 33]	IC50	< 10 nM
CN1CCN(c2nc(C3(c4ccc(Cl)cc4)CCC3)cs2)CC1 [Compound 27]	IC50	< 1000 nM
CN1CCC(c2nc(C3(c4ccc(Cl)cc4)CCCCC3)cs2)CC1 [Compound 35]	IC50	< 1000 nM
CN1CCC(c2nc(C3(c4cccc(Cl)c4)CCOCC3)cs2)CC1 [Compound 69]	IC50	> 1000 nM
CC(C)N1CCN(c2nc(C3(c4ccc(Cl)cc4)CCCCC3)cs2)CC1 [Compound 78]	IC50	< 1000 nM
Clc1ccc(C2(c3csc(N4CCNCC4)n3)CCOCC2)cc1 [Compound 37]	IC50	> 1000 nM
Clc1ccc(C2(c3csc(NCCN4CCOCC4)n3)CCC2)cc1 [Compound 22]	IC50	> 1000 nM
Clc1ccc(C2(c3csc(C4CCNCC4)n3)CCC2)cc1 [Compound 30]	IC50	< 1000 nM
CC(C)N1CCN(c2nc(C3(c4ccc(F)cc4)CCCCC3)cs2)CC1 [Compound 80]	IC50	< 1000 nM
COc1ccc(C2(c3csc(N4CCN(C)CC4)n3)CCOCC2)cc1 [Compound 51]	IC50	> 1000 nM
CN1CCC(c2nc(C3(c4ccc(Cl)cc4)CCC3)cs2)CC1 [Compound 31]	IC50	< 1000 nM
COc1ccc(C2(c3csc(N4CCN(C)CC4)n3)CCOCC2)cc1OC [Compound 74]	IC50	> 1000 nM
Clc1ccc(C2(c3csc(NCCN4CCCCC4)n3)CCC2)cc1 [Compound 23]	IC50	< 1000 nM
CN1CCN(c2nc(CCc3ccc(Cl)cc3)cs2)CC1 [Compound 32]	IC50	< 1000 nM
CN1CCN(c2nc(C3(c4ccc(Cl)cc4)CCCCC3)cs2)CC1 [Compound 34]	IC50	< 100 nM
Clc1cccc(C2(c3csc(C4CCNCC4)n3)CCOCC2)c1 [Compound 68]	IC50	> 1000 nM
CN1CCN(c2nc(C3(c4ccccc4F)CCCCC3)cs2)CC1 [Compound 83]	IC50	< 100 nM
CN1CCN(c2nc(C3(c4ccccc4F)CCCC3)cs2)CC1 [Compound 93]	IC50	< 1000 nM
